Substrate: CP C3-convertase (C4b2a) (UniProt P0C0L4)
Sequence (P0C0L4 757-1446 limits assumed, chain 1 of 4): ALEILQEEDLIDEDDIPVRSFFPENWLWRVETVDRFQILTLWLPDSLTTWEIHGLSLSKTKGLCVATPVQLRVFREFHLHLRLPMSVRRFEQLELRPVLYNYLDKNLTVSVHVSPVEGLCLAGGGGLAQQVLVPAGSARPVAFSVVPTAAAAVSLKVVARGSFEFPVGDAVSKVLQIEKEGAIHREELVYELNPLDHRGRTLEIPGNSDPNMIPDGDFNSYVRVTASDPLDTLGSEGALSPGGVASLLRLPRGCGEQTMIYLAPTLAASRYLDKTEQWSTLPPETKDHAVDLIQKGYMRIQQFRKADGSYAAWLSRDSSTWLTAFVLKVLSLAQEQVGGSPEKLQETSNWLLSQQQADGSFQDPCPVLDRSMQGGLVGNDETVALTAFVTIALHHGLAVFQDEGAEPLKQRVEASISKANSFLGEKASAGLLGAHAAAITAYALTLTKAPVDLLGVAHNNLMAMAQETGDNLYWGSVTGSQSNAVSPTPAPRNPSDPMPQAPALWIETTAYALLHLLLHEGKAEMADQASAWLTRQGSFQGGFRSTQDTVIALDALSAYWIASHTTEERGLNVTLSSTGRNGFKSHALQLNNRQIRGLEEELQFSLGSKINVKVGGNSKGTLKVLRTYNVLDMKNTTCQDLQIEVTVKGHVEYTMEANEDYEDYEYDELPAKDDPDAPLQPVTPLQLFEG
Sequence (P0C0L4 20-675 limits assumed, chain 2 of 4): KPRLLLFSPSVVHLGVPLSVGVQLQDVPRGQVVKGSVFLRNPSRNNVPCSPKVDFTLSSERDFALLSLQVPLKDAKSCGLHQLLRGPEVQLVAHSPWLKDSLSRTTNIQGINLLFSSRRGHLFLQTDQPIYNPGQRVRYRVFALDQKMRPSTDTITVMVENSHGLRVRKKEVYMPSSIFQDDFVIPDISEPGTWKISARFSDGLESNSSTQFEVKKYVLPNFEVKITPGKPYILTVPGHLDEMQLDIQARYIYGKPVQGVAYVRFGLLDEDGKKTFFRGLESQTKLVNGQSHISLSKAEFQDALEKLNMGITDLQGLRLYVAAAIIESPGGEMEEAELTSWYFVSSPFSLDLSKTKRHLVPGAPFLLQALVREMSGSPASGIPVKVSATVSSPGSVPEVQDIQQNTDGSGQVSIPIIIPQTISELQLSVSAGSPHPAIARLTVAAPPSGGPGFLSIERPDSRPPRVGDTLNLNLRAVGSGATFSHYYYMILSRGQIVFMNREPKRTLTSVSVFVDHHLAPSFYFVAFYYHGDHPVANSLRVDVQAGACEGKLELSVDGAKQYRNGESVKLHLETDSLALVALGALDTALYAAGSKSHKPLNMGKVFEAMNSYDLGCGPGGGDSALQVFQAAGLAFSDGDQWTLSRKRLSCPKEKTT
Sequence (P0C0L4 1454-1744 limits assumed, chain 3 of 4): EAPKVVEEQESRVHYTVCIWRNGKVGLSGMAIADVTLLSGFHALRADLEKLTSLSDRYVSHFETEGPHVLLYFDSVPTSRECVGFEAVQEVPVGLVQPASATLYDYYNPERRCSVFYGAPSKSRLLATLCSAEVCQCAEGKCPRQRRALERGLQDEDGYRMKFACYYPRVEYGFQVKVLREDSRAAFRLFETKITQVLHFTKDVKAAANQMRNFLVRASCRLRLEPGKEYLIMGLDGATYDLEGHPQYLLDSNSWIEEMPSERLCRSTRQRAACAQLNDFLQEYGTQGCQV
Sequence (P06681 244-752 limits assumed, chain 4 of 4, further chain): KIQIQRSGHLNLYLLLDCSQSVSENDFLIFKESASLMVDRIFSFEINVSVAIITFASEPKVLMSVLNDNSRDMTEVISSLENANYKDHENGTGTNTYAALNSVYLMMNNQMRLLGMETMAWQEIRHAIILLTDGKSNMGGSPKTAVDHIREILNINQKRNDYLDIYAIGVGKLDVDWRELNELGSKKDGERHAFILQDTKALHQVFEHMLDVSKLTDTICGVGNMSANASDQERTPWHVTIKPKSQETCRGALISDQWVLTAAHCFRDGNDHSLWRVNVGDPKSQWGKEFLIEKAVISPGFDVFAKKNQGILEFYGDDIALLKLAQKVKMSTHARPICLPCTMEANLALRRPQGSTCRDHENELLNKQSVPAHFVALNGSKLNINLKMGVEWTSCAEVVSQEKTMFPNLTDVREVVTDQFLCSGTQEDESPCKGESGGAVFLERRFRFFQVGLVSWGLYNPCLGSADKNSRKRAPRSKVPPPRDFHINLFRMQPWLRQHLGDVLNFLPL
Assay: cell-based or functional assay
measurement-label: Relative CP-DAA
Please reply with the value in numeric form only.

May I ask what Relative CP-DAA has been recorded for D2D3M3M4 (L205K) (protein) CEVPTRLNSASLKQPYITQNYFPVGTVVEYECRPGYRREPSLSPKLTCLQNLKWSTAVEFCKKKSCPNPGEIRNGQIDVPGGILFGATISFSCNTGYKLFGSTSSFCKISGSSVQWSDPLPECREIYCTPPPKIKNGKHTFSEVEVFEYLDAVTYSCDPAPGPDPFSLIGESTIYCGDNSVWSRAAPECKVVKCRFPVVENGKQISGFGKKFYYKATVMFECDKGFYLDGSDTIVCDSNSTWDPPVPKCLKVL ?
1.7

# query: Relative CP-DAA of entry D2D3M3M4 (S199K) (protein) CEVPTRLNSASLKQPYITQNYFPVGTVVEYECRPGYRREPSLSPKLTCLQNLKWSTAVEFCKKKSCPNPGEIRNGQIDVPGGILFGATISFSCNTGYKLFGKTSSFCLISGSSVQWSDPLPECREIYCTPPPKIKNGKHTFSEVEVFEYLDAVTYSCDPAPGPDPFSLIGESTIYCGDNSVWSRAAPECKVVKCRFPVVENGKQISGFGKKFYYKATVMFECDKGFYLDGSDTIVCDSNSTWDPPVPKCLKVL
0.7
